# protocol: Selectivity index, ratio of IC50 for HEK293T cells to IC50 for human HeLa cells
# Type: toxicity
# cond: HEK293T cells versus HeLa cells, read-out: Ratio IC50
compounds and their reported selectivity ratio
readout kind: selectivity ratio

- COc1ccc(-c2nc3cc(/C=C4\SC(=O)N(Cc5cc(OC)c(OC)c(OC)c5)C4=O)ccc3[nH]2)cc1OC: 21.1
- COc1cc(OC)c(-c2nc3cc(/C=C4\SC(=O)N(Cc5cccc(C)c5)C4=O)ccc3[nH]2)cc1OC: 18.6
- COc1cc(-c2nc3cc(/C=C4\SC(=O)N(Cc5cc(OC)c(OC)c(OC)c5)C4=O)ccc3[nH]2)ccc1OCC(C)C: 26.6

---

# protocol: Selectivity index, ratio of IC50 for HEK293T cells to IC50 for human MDA-MB-231 cells
# Assay type: toxicity
# cond: HEK293T cells versus MDA-MB-231 cells, read-out: Ratio IC50
compounds and their reported selectivity ratio
readout kind: selectivity ratio

- COc1cc(-c2nc3cc(/C=C4\SC(=O)N(Cc5cc(OC)c(OC)c(OC)c5)C4=O)ccc3[nH]2)ccc1OCC(C)C: 1.5
- COc1cc(OC)c(-c2nc3cc(/C=C4\SC(=O)N(Cc5cccc(C)c5)C4=O)ccc3[nH]2)cc1OC: 1.9

---

# System: HT-1080
# protocol: Cytotoxicity against human HT1080 cells assessed as cell growth inhibition after 48 hrs by MTT assay
# Format: functional, cell-based
# cond: HT-1080, 48 h
pIC50: −log10 of the molar value.
readout kind: pIC50

- COc1cc(OC)c(-c2nc3cc(/C=C4\SC(=O)NC4=O)ccc3[nH]2)cc1OC: 5.20
- COc1cc(OC)c(-c2nc3cc(/C=C4\SC(=O)N(CC(=O)N5CCCCC5)C4=O)ccc3[nH]2)cc1OC: 5.06
- COc1cc(-c2nc3cc(/C=C4\SC(=O)N(CC(=O)N5CCCC5)C4=O)ccc3[nH]2)cc(OC)c1OC: 5.61
- COc1cc(-c2nc3cc(/C=C4\SC(=O)N(CC(=O)c5ccccc5)C4=O)ccc3[nH]2)cc(OC)c1OC: 6.24
- COc1cc(-c2nc3cc(/C=C4\SC(=O)N(Cc5ccccc5)C4=O)ccc3[nH]2)cc(OC)c1OC: 6.18
- COc1ccc(-c2nc3cc(/C=C4\SC(=O)N(Cc5cc(OC)c(OC)c(OC)c5)C4=O)ccc3[nH]2)cc1OC: 6.57
- COc1cc(-c2nc3cc(/C=C4\SC(=O)N(Cc5cc(OC)c(OC)c(OC)c5)C4=O)ccc3[nH]2)ccc1OCC(C)C: 6.80
- COc1cc(-c2nc3cc(/C=C4\SC(=O)N(CC(=O)N5CCOCC5)C4=O)ccc3[nH]2)cc(OC)c1OC: 5.77
- COc1cc(OC)c(-c2nc3cc(/C=C4\SC(=O)N(Cc5cccc(C)c5)C4=O)ccc3[nH]2)cc1OC: 6.72
- COc1ccc(-c2nc3cc(/C=C4\SC(=O)N(CC(=O)c5ccccc5)C4=O)ccc3[nH]2)cc1OC: 6.23
- COc1cc(-c2nc3cc(/C=C4\SC(=O)N(CC(=O)N5CCCCC5)C4=O)ccc3[nH]2)cc(OC)c1OC: 5.44
- COc1cc(CN2C(=O)S/C(=C\c3ccc4[nH]c(-c5cc(OC)c(OC)c(OC)c5)nc4c3)C2=O)cc(OC)c1OC: 6.01
- COc1ccc(-c2nc3cc(/C=C4\SC(=O)N(CC(=O)N5CCOCC5)C4=O)ccc3[nH]2)cc1OC: 5.48
- COc1cc(OC)c(-c2nc3cc(/C=C4\SC(=O)N(CC(=O)N5CCOCC5)C4=O)ccc3[nH]2)cc1OC: 5.95
- COc1cc(-c2nc3cc(/C=C4\SC(=O)NC4=O)ccc3[nH]2)ccc1OCC(C)C: 5.35
- COc1cc(-c2nc3cc(/C=C4\SC(=O)N(Cc5cccc(C)c5)C4=O)ccc3[nH]2)cc(OC)c1OC: 5.34
- COc1ccc(-c2nc3cc(/C=C4\SC(=O)NC4=O)ccc3[nH]2)cc1OC: 5.61
- COc1cc(-c2nc3cc(/C=C4\SC(=O)NC4=O)ccc3[nH]2)cc(OC)c1OC: 5.51
